Entries annotated with measured Fold improvement in KD
biological target: T1, human LAP-TGFB1 Fc fusion (human); experiment: SPR, antigen-Fc captured, Fab analyte
T1 construct: also called human LAP-TGFβ1-Fc; human LAP-TGFβ-Fc isoform 1
T1 sequence (chain, as listed by the source limits assumed): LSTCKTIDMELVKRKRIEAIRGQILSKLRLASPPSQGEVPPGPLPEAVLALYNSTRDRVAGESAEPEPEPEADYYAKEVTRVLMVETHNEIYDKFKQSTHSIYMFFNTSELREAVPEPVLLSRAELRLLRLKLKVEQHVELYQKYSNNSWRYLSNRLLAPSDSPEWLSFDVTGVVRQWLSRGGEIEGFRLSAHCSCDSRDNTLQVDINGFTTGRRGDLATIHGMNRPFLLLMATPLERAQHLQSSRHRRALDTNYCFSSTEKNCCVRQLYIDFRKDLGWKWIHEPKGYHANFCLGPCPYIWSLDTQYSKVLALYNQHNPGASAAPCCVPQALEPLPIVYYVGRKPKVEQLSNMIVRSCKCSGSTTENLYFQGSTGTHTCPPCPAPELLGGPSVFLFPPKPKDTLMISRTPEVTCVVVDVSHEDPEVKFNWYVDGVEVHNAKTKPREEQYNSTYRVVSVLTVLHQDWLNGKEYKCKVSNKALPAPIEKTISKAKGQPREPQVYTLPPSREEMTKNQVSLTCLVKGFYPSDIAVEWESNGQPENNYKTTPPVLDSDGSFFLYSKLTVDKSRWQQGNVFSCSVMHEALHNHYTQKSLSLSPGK
API: value field is a number in fold; no unit string.

Consider the worked cases shown below.
binder="76BJN (Fab, V domains shown, also called VH S31Y W33D Q54Y S55D G57D / VL T30Y R53L T93E (76BJN)) VH: EVQLVQSGAEVKKPGASVKVSCKASGYTFTYYDMHWVRQAPGQGLEWMGRIDPYDGDIKYAQKFQGRATLTVDTSTSTAYMELSRLRSDDTAVYYCARWDYGGYFDVWGQGTLVTVSS VL: DIQMTQSPSSLSASVGDRVTITCRASQDIYNYLNWYQQKPGKAVKLLIYYTSLLHSGVPSRFSGSGSGTDYTLTISSLQPEDFATYFCQQGDELPWTFGQGTKLEIKR" endpoint_label="Fold improvement in KD" value=768
binder="60BJN (Fab, V domains shown, also called VH W33D I58E W99Y / VL T30Y (60BJN)) VH: EVQLVQSGAEVKKPGASVKVSCKASGYTFTSYDMHWVRQAPGQGLEWMGRIDPQSGGEKYAQKFQGRATLTVDTSTSTAYMELSRLRSDDTAVYYCARYDYGGYFDVWGQGTLVTVSS VL: DIQMTQSPSSLSASVGDRVTITCRASQDIYNYLNWYQQKPGKAVKLLIYYTSRLHSGVPSRFSGSGSGTDYTLTISSLQPEDFATYFCQQGDTLPWTFGQGTKLEIKR" endpoint_label="Fold improvement in KD" value=31

Okay, next one:
(Q) Give reported Fold improvement in KD value for 20E6 Fab (80BGJ/85BIT) (Fab, V domains shown, also called 20E6 (80BGJ); 20E6 (85BIT)) VH: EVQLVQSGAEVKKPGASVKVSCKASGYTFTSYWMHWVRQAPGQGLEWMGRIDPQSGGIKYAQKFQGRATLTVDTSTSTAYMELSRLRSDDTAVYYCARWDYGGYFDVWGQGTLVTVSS VL: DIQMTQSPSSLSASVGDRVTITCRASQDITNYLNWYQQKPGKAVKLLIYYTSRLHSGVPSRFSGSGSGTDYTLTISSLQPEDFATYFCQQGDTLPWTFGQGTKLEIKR
(A) 1
